assay: BET inhibitor-based combinations targeting novel dependencies in MECOM-rearranged (r) AML: UCSD-AML1 cell line (AID 2202235); conditions: UCSD-AML1 AML cells viability, CellTiter-Glo, 48 h; series mostly up to 46 µM; also: nearly all actives have a fitted effect of over 40% in size; also: potency is read from the fitted curve at half-maximal effect
Records with an inconclusive call do not appear. Active and inactive are the calls of the source. Calls follow the shape of the dose curve; as a rule, active = well fitted inhibition curve with a large enough effect; inconclusive = small, poorly fitted or top-dose-only effect; inactive = no such curve, though single readings can be large or run the other way.
readout: Potency

Here are 5 compounds together with their reported answers.
compound	value
Cc1c(C)n(Cc2ccc(-c3ccccc3C(=O)O)cc2)c2ccc(C(=O)N[C@@H](C)c3ccc([N+](=O)[O-])cc3)cc12	inactive
CC(C)CC(=O)Nc1n[nH]c2c1CN(C(=O)C1CCN(C)CC1)C2(C)C	2350 nM (active)
CCCCc1nc2cc(/C=C/C(=O)NO)ccc2n1CCN(CC)CC	833 nM (active)
Cc1c(CCOc2ccc(C(=O)O)cc2)c2cc(Cl)ccc2n1C(c1ccccc1)c1ccccc1	inactive
CCOC(=O)c1ccnc(CNCC(=O)N(CC)CCN(C)C)c1	inactive

Lab note: CC[C@@H]1C(=O)N(C)c2cnc(Nc3ccc(C(=O)NC4CCC(N5CCN(CC6CC6)CC5)CC4)cc3OC)nc2N1C(C)C (some centres not stated) gave Potency of 166 nM (active)

So for COc1ccc(-c2ccc3cc(C(=O)O)ccc3c2)cc1C12CC3CC(CC(C3)C1)C2 , the logged Potency turned out to be inactive

Looking up O=C(Nc1ccc(-c2ccnc(Nc3ccc(N4CCOCC4)cc3)n2)cc1)C1CCCN1 (configuration not stated) , I see its Potency listed as 1660 nM (active)

Record O=C(Nc1ccccc1-c1cn2c(CN3CCNCC3)csc2n1)c1cnc2ccccc2n1 , field Potency: 8330 nM (active)

====

experiment: BET inhibitor-based combinations targeting novel dependencies in MECOM-rearranged (r) AML: AML-191 cell line (AID 2202236; also: nearly all actives have a fitted effect of over 35% in size); conditions: AML-191 viability, CellTiter-Glo luminescence, 48 h; series mostly up to 46 µM
Records with an inconclusive call do not appear. Calls of active or inactive are those of the source. Calls follow the shape of the dose curve; as a rule, active = well fitted inhibition curve with a large enough effect; inconclusive = small, poorly fitted or top-dose-only effect; inactive = flat fitted curve, though single readings scatter. Positions of bridges follow the written chain, without caps; N, C: chain ends. Non-standard residues stand in square brackets, D forms with d. Residues, ends and D or L forms follow the SMILES beside them. ξ: configuration not given here. *: point of attachment. Octanoyl(6-Me) = CCC(C)CCCCC(=O)*; ξThr(3R) = C[C@@H](O)C(N)C(=O)O; dDab = NCC[C@@H](N)C(=O)O; Dab = NCC[C@H](N)C(=O)O
Outcome (select one): Yes = active, No = inactive

compound	assigned-category
OCCN1C[C@H](O)[C@@H](O)[C@H](O)[C@H]1CO	No
Nc1nc2[nH]cc(CCc3ccc(C(=O)N[C@@H](CCC(=O)O)C(=O)O)cc3)c2c(=O)[nH]1	Yes

How was CC[C@]12C=CCN3CC[C@@]4(c5cc([C@@]6(C(=O)OC)C[C@H]7C[C@@H](C(C)(F)F)CN(Cc8c6[nH]c6ccccc86)C7)c(OC)cc5N(C)[C@H]4[C@@](O)(C(=O)OC)[C@@H]1OC(C)=O)[C@@H]32 classified in this test?
Yes

Fill in: this test's call for CN1CCC(=C2c3ccccc3CC(=O)c3sccc32)CC1 is ___
No

Hi, sorry to bother you, what did the test record for CCC(C)CCCCC(=O)N[C@@H](CCN)C(=O)NC(C(=O)N[C@H](CCN)C(=O)N[C@@H]1CCNC(=O)C([C@@H](C)O)NC(=O)[C@@H](CCN)NC(=O)[C@@H](CCN)NC(=O)[C@@H](CC(C)C)NC(=O)[C@H](Cc2ccccc2)NC(=O)[C@H](CCN)NC1=O)[C@@H](C)O (stereo partly drawn) ({Octanoyl(6-Me)}-[Dab][ξThr(3R)][dDab][dDab][Dab]F[dL][dDab][dDab][ξThr(3R)]; lactam 4-C) ?
No

How was Cc1nc2cnc3ccc(C#Cc4cccnc4)cc3c2n1-c1ccc(C(C)(C)C#N)cc1 classified in this test?
Yes

Outcome? CNC(=O)c1ccc(Nc2ncc(C(F)(F)F)c(NCc3nccnc3N(C)S(C)(=O)=O)n2)cc1
Yes

Please share the test call associated with Cc1nnc(C(=O)NC(C)(C)c2nc(C(=O)NCc3ccc(F)cc3)c(O)c(=O)n2C)o1 .
No

# outcome recorded in this test, key = CN1C(=O)C(Cc2c[nH]c3ccccc23)NC1=S (stereo not drawn)
No

====

In this section we review reported Potency values for a set of compounds.
biological target: Aldehyde dehydrogenase, mitochondrial (Homo sapiens); experiment: qHTS for Inhibitors of the Aldehyde Dehydrogenase Family (ALDH2) Primary screen (AID 2061308); conditions: ALDH2 enzyme inhibition qHTS, 1536-well; series mostly up to 56 µM; also: potency is read from the fitted curve at half-maximal effect; nearly all actives have a fitted effect of over 55% in size
Records with an inconclusive call do not appear. Activity calls are given as the source filed them. Calls follow the shape of the dose curve; as a rule, active = well fitted inhibition curve with a large enough effect; inconclusive = small, poorly fitted or top-dose-only effect; inactive = flat fitted curve, though single readings scatter.

> print(dat)
                               smiles.entry              value
1  CCOC(=O)c1cnn(-c2ccc(NC(=O)C(Cl)=C(Cl)Cl)cc2)c1C(F)(F)F   4.47 µM (active)
2                   CC1=NN(c2ccccc2)C(=O)C1  0.794 µM (active)
3  CO/N=C(/C(=O)N[C@@H]1C(=O)N2C(C(=O)O)=C(CSC(=O)c3ccco3)CS[C@H]12)c1csc(N)n1   17.8 µM (active)
4  Cc1ccc(S(=O)(=O)c2ccc([N+](=O)[O-])o2)cc1  0.562 µM (active)
5  Cc1ccnc(NC(=S)N2CCN(c3cccc(Cl)c3Cl)CC2)c1   6.31 µM (active)

Input COc1cc(NS(=O)(=O)c2ccc([N+](=O)[O-])cc2)c2ncccc2c1 . Output Potency: 20 µM (active)

====

test: qHTS for Inhibitors of the Aldehyde Dehydrogenase Family (ALDH1A2, ALDH1A3, ALDH2, ALDH3A1) (AID 2061307); details: ALDH inhibition qHTS; series mostly up to 50.3 µM; also: nearly all actives have a fitted effect of over 50% in size
Records with an inconclusive call do not appear. The source made the active and inactive calls. Calls follow the shape of the dose curve; as a rule, active = well fitted inhibition curve with a large enough effect; inconclusive = small, poorly fitted or top-dose-only effect; inactive = no such curve, though single readings can be large or run the other way.
Form entry, call: pick from active, inactive

> print(dat)
                                   compound  assigned.category
1  S=C(NCc1ccc2c(c1)OCO2)N1CCN(c2ncnc3c2oc2ccccc23)CC1             active
2  C=C1CC23CC1CCC2C12OC(=O)C(C)(CCC1O)C2C3C(=O)O (stereo not given)           inactive
3                          CCN1C(=O)C=CC1=O           inactive

I would be grateful if you could indicate the recorded call for NC(=O)[C@H]1CCS[C@@H]2C[C@]3(CCCN3C(=O)Cc3ccc(NC(=O)COc4ccc(Cl)cc4Cl)cc3)C(=O)N12 .
inactive

Could you check what this test reported for COC(=O)c1ccc2c(c1)S(=O)(=O)N=C2Sc1cc(C)ccc1C ?
inactive

====

assay: BET inhibitor-based combinations targeting novel dependencies in MECOM-rearranged (r) AML: OCI-AML3 cell line (AID 2202232); conditions: CellTiter-Glo luminescence, 48 h; OCI-AML3 viability; series mostly up to 46 µM; also: nearly all actives have a fitted effect of over 35% in size
Records with an inconclusive call do not appear. Activity calls are given as the source filed them. The call rests on the fitted dose curve; in most records, active means well fitted inhibition curve with a large enough effect; inconclusive means small, poorly fitted or top-dose-only effect; inactive means no such curve, though single readings can be large or run the other way.
Classes to choose from: label 1 (active), label 0 (inactive)

Answered cases to consult:
> print(dat)
                                   compound  assigned.category
1  Nc1ncnc2c1ncn2[C@@H]1O[C@H](CO)[C@@H](O)[C@H]1O            label 0
2  CC#CCn1c(N2CCC[C@@H](N)C2)nc2c1c(=O)n(Cc1nc(C)c3ccccc3n1)c(=O)n2C            label 0
3  Clc1ccc(C(Cn2ccnc2)OCc2c(Cl)cccc2Cl)c(Cl)c1 (stereo not drawn)            label 1

How did this test come out for C[Se]CCC(N)C(=O)O (stereo not drawn) ?
label 0

// param item: NC(N)=NC(=O)c1nc(Cl)c(N)nc1N ; yields the recorded call
label 1

Which outcome was entered for the compound CNC(=O)c1ccc2cc(C3(O)CCn4cncc43)ccc2c1 (stereo not drawn) in this test?
label 0

Could you kindly confirm the outcome this assay logged for Cc1noc2c1-c1ccccc1C(c1ccc(Cl)cc1)=N[C@H]2CC(N)=O ?
label 1

Call for entry CC1(C)CCC(CN2CCN(c3ccc(C(=O)NS(=O)(=O)c4ccc(NCC5CCOCC5)c([N+](=O)[O-])c4)c(Oc4cnc5[nH]ccc5c4)c3)CC2)=C(c2ccc(Cl)cc2)C1 :
label 1

====

assay: BET inhibitor-based combinations targeting novel dependencies in MECOM-rearranged (r) AML: UCSD-AML1 cell line (AID 2202235); settings: UCSD-AML1 AML cells viability, CellTiter-Glo, 48 h; series mostly up to 46 µM; also: nearly all actives have a fitted effect of over 40% in size
Records with an inconclusive call do not appear. Activity calls are given as the source filed them. Calls come from the whole dose curve; as a rule, active = well fitted inhibition curve with a large enough effect; inconclusive = small, poorly fitted or top-dose-only effect; inactive = no such curve, though single readings can be large or run the other way.
I would appreciate it if you answered using one of these outcomes: t (active), f (inactive)

> print(dat)
                               smiles.entry  assigned.category
1  Cc1ccc(-c2ccc3ncc4c(c3n2)n(C2CCN(C(=O)[C@H](C)O)CC2)c(=O)n4C)cn1                  t

Hi team, can someone confirm the assay call for CC(C)c1cc(C(C)C)c(CC(=O)NS(=O)(=O)Oc2c(C(C)C)cccc2C(C)C)c(C(C)C)c1 ?
f

What outcome does the record of this test show for N=c1ccn2c(n1)O[C@H]1[C@@H](O)[C@@H](CO)O[C@H]12 ?
t

Each molecule tested received a call. Report the one for CN1CCN(c2ncc(-c3cc(Cl)cc(Cl)c3Cl)c(N)n2)CC1 .
f
